Catalogue of compounds with associated Kd
biological target: DCAF1 WD40 domain (residues 1077-1390) (Homo sapiens, UniProt Q9Y4B6); construct: DCAF1 WD40 domain (residues 1077-1390); assay: DCAF1 binding assay by SPR (Biacore 8K+), DCAF1-3 KD; settings: 25 °C, read-out: DCAF1-3 SPR (KD)
Sequence (Q9Y4B6 1077-1390): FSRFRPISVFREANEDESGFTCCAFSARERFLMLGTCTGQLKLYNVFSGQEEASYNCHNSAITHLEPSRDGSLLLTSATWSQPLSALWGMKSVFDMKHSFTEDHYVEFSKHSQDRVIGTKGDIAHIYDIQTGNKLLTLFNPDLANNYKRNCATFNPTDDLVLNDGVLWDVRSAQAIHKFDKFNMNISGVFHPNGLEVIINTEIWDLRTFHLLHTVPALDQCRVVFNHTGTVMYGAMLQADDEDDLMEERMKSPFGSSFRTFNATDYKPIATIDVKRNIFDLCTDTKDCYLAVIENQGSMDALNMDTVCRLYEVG

Here are 5 compounds together with their reported answers.
{"columns": ["Compound", "Kd"],
 "data": [
  ["C=CC(=O)N1CCC(c2[nH]ncc2C(=O)N[C@H](CC(N)=O)c2cccc(Cl)c2)CC1 [I-535]", "100 to 200 µM"],
  ["CCCCN1CCN(c2ccnc(N[C@@H]3CCCN(c4cccc(F)c4)C3)c2)CC1 [I-318]", "> 200 µM"],
  ["C=CC(=O)NCCCC1CCN(c2ccnc(N3CC[C@@H]4[C@H]3CCCN4c3cccc(F)c3)c2)CC1 [I-705]", "100 to 200 µM"],
  ["c1ccc2c(N3CCC[C@@H](Nc4cncc(N5CCOCC5)c4)C3)cncc2c1 [I-365]", "< 10 µM"],
  ["Cc1cccc(F)c1-c1c(C(=O)N[C@@H](CC(N)=O)c2cccc(Cl)c2)c[nH]c1C(=O)Cc1ccccc1 [I-622]", "< 10 µM"]
]}

For DCAF1 WD40 domain (residues 1077-1390) (Homo sapiens, UniProt Q9Y4B6), give the measured Kd of the entry OC[C@H]1CC[C@H](Nc2cc(N3CCCCC3)ccn2)CN1c1cccc(F)c1 [I-994] 10 to 100 µM

For DCAF1 WD40 domain (residues 1077-1390) (Homo sapiens, UniProt Q9Y4B6), give the measured Kd of the entry Cc1sc2c(c1C)C(c1ccc(Cl)cc1)=N[C@@H](CC(=O)NCCCCCCCCCCCCC(=O)c1[nH]cc(C(=O)C[C@@H](CC(N)=O)c3cccc(Cl)c3)c1-c1ccccc1F)c1nnc(C)n1-2 [I-892] > 200 µM

For DCAF1 WD40 domain (residues 1077-1390) (Homo sapiens, UniProt Q9Y4B6), give the measured Kd of the entry COCCN1CCC(c2ccnc(N[C@@H]3CCCN(c4cccc(F)c4)C3)c2)CC1 [I-99] 10 to 100 µM

For DCAF1 WD40 domain (residues 1077-1390) (Homo sapiens, UniProt Q9Y4B6), give the measured Kd of the entry O=C1[C@H](Nc2cc(N3CCOCC3)ccn2)CCCN1c1cccc(F)c1 [I-281] > 200 µM

For DCAF1 WD40 domain (residues 1077-1390) (Homo sapiens, UniProt Q9Y4B6), give the measured Kd of the entry Fc1cccc(N2CC[C@@]3(CCN(c4cc(N5CCCCC5)ccn4)C3)C2)c1 [I-659] 10 to 100 µM

For DCAF1 WD40 domain (residues 1077-1390) (Homo sapiens, UniProt Q9Y4B6), give the measured Kd of the entry O=c1cc(N2CCOCC2)cc(N[C@@H]2CCCN(c3cccc(F)c3)C2)[nH]1 [I-303] > 200 µM

For DCAF1 WD40 domain (residues 1077-1390) (Homo sapiens, UniProt Q9Y4B6), give the measured Kd of the entry C=CC(=O)Nc1n[nH]cc1C(=O)N[C@@H](CC(N)=O)c1cccc(Cl)c1 [I-308] > 200 µM

====

Catalogue of compounds with associated Kd
target: DCAF1 WD40 domain (residues 1077-1390) (Homo sapiens); construct: DCAF1 WD40 domain (residues 1077-1390); experiment: DCAF1 binding assay by SPR (Biacore 8K+), DCAF1-3 KD; conditions: 25 °C, read-out: DCAF1-3 SPR (KD)

Tell me Kd reported for Cc1c(N2CCOCC2)ccnc1N[C@@H]1CCCN(c2cccc(F)c2)C1 [I-516] 10 to 100 µM

Tell me Kd reported for c1ccc2c(N3CCC[C@@H](Nc4cc(N5CCOCC5)ccn4)C3)nncc2c1 [I-65] 100 to 200 µM

Tell me Kd reported for OC[C@@]1(Nc2cc(N3CCOCC3)ccn2)CCCN(c2cccc(F)c2)C1 [I-276] > 200 µM

Tell me Kd reported for NC(=O)NCc1cccc(N2CCC[C@H]3[C@@H]2CCN3c2cc(N3CCCCC3)ccn2)c1 [I-953] < 10 µM

Tell me Kd reported for CNC(=O)C[C@H](NC(=O)c1c[nH]c(C(=O)COCCOCCOCCOCCOCCN)c1-c1c(F)ccc(F)c1C)c1cccc(Cl)c1 [I-820] < 10 µM

Tell me Kd reported for NC(=O)C[C@H](NC(=O)c1cn[nH]c1-c1ccccc1F)c1cccc(O)c1 [I-129] > 200 µM

Tell me Kd reported for Cc1c(F)ccc(F)c1-c1[nH]ncc1C(=O)N[C@@H](CC(N)=O)c1cccc(Cl)c1 [I-601] < 10 µM

Tell me Kd reported for Cc1c(F)ccc(F)c1-c1[nH]ncc1C(=O)N[C@@H](CC(=O)N1CCN(C)CC1)c1cccc(Cl)c1 [I-843] < 10 µM

Tell me Kd reported for Cc1nn(-c2ccccc2)c(C)c1N1CCC[C@@H](Nc2cc(N3CCOCC3)ccn2)C1 [I-418] > 200 µM

Tell me Kd reported for NC(=O)CCc1cccc(N2CCC[C@@H](Nc3cc(N4CCOCC4)ccn3)C2)c1 [I-777] 10 to 100 µM

Tell me Kd reported for c1ccc(N2CCC[C@@H](Nc3cc(N4CCOCC4)ncn3)C2)nc1 [I-11] > 200 µM

Tell me Kd reported for Oc1ccc(N2CCC[C@@H]3[C@H]2CCN3c2cc(N3CC4CC(C4)C3)ccn2)cc1 [I-709] 10 to 100 µM

Tell me Kd reported for Cc1c(F)ccc(F)c1-c1c(C(=O)N[C@@H](CC(N)=O)c2cccc(Cl)c2)cn(C)c1C(=O)c1ccc(OCCOCCOCCOCCN)cc1 [I-1024] < 10 µM

Tell me Kd reported for c1ccc2c(N3CCC[C@@H](Nc4nccc(N5CCOCC5)n4)C3)cncc2c1 [I-54] 10 to 100 µM

Tell me Kd reported for c1ccc2c(N3CCC[C@@H](n4ccc(N5CCOCC5)c5ccnc4-5)C3)nccc2c1 [I-367] > 200 µM

Tell me Kd reported for Cc1cccc(-c2[nH]ncc2C(=O)N[C@@H](CC(N)=O)c2cccc(Cl)c2)c1 [I-102] 10 to 100 µM

Tell me Kd reported for OC1(C2CCCCC2)CCC[C@@H](Nc2cc(N3CCCCC3)ccn2)C1 (some centres unmarked) [I-804] 10 to 100 µM

Tell me Kd reported for NC(=O)[C@@H]1[C@H](Nc2cc(N3CCOCC3)ccn2)CCCN1c1cccc(F)c1 [I-278] > 200 µM

Tell me Kd reported for Fc1cccc(N2CCCC(N3CCc4c(N5CCCCC5)ccnc43)C2)c1 (centres unmarked) [I-789] < 10 µM

Tell me Kd reported for COCCOCC[C@H]1CCCN(c2ccnc(N3CC[C@H]4[C@@H]3CCCN4c3cccc(F)c3)c2)C1 [I-715] < 10 µM
